# TARGET: GmRLK18-1 LRR domain (RHG1)
# EXPERIMENT SUMMARY: Binding of CLE like peptides to purified LRR domain of the RLK at rhg1/Rfs2, titration by luminescence spectrometry
# Parameters: species or system Glycine max
# DETAILS: assays in vitro; read-out: binding constants, GmRLK18-1-LRR
Where no end group is shown, it is not given here.
QUANTITY NAME: Kd
Be sure to follow the number with its unit.

**Query** Which value of Kd has been reported for AHEVPSGPNPISNR [T, AHEVPSGPNPISNR] in the records?
**Result** 20 nM

---

# TARGET: GmRLK18-1 LRR domain (RHG1)
# EXPERIMENT SUMMARY: Binding of CLE like peptides to purified LRR domain of the RLK at rhg1/Rfs2, titration by luminescence spectrometry
# Parameters: species or system Glycine max
# DETAILS: purified LRR domain; binding constants calculated from titration experiments; read-out: Kd (nM) RHG1
Where no end group is shown, it is not given here.
Below, each entry is listed alongside its reported log10 of Kd.
Quick note: numbers are log10 of Kd, with nM as the unit.

**Query** Which value of log10 of Kd has been reported for RLAPEGPDPHHN [compound 30, RLAPEGPDPHHN] in the records?
**Result** 1.64

**Query** Which value of log10 of Kd has been reported for RLAPGGPDPQHN [compound 2, RLAPGGPDPQHN] in the records?
**Result** 1.65
